# Test Name: NCI Yeast Anticancer Drug Screen. Data for the rad50 strain (AID 155);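 also: 0% = growth of vehicle-only cultures of the same strain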
# Test Settings: S. cerevisiae rad50 strain growth inhibition; at 50.0 µM; hits give high values
About 79,000 compounds went through this panel and 15% of them were active in at least one assay; those are over-represented in the sample as a whole. The source made the active and inactive calls. Rule as the data show it: active = growth inhibition above about 70%; inactive = the rest.
Measured Metric: growth inhibition

                                   molecule    measured_metric             result
0  O=C1OC(c2ccc(Cl)cc2)=N/C1=C\c1c(Cl)cccc1Cl  growth inhibition    6.9% (inactive)
1  c1ccc2c(N=C(Nc3cccc4ccccc34)c3cccc4ccccc34)cccc2c1  growth inhibition   20.4% (inactive)
2                          CCCCCCCCNCC(=O)O  growth inhibition    -20% (inactive)
3  Cc1ccc(C)c(NC(=O)CCC(=O)C(C#N)c2nc3ccccc3s2)c1 (centres undefined)  growth inhibition   25.9% (inactive)
4  COC1C2CCC1C(N=O)C2Br (centres undefined)  growth inhibition  -23.2% (inactive)
5                 CCOC(=O)/C(C#N)=C/NCC1CC1  growth inhibition  -21.8% (inactive)

For the molecule `Cn1nnnc1CCO` , what growth inhibition is on record?
-9.45% (inactive)

For the molecule `Cc1ccc(S(=O)(=O)NCCC(Cl)(Cl)Cl)cc1` , what growth inhibition is on record?
21.6% (inactive)

For the molecule `COc1ccc([Se][Se]c2ccc(OC)cc2NC(C)=O)c(NC(C)=O)c1` , what growth inhibition is on record?
19.8% (inactive)

For the molecule `CC1=C(C)CP(=O)(c2ccccc2)C1` , what growth inhibition is on record?
16.6% (inactive)

For the molecule `C[n+]1ccc(CCC(=O)Nc2ccccc2)cc1` , what growth inhibition is on record?
3.65% (inactive)

For the molecule CC(=O)N1Cc2c(nc[nH]c2=O)C1C (centres undefined) , what growth inhibition is on record?
-8.05% (inactive)

For the molecule COc1ccc2c(c1)C1(C)CCCC(C)(CN=C=O)C1CC2 (centres undefined) , what growth inhibition is on record?
3.55% (inactive)

For the molecule BrC1Cc2ccccc2C(Br)Cc2ccccc21 (centres undefined) , what growth inhibition is on record?
-7.65% (inactive)

For the molecule `CC(C)OC1CC1` , what growth inhibition is on record?
4.65% (inactive)

For the molecule `COC(=O)C1(COC(C)=O)CC1` , what growth inhibition is on record?
-6.8% (inactive)

For the molecule CC1(C)C(c2ccccc2)C12CCC1(C2=O)C(c2ccccc2)C1(C)C (centres undefined) , what growth inhibition is on record?
-41.8% (inactive)

For the molecule `Cc1ccc(S(=O)(=O)N/N=C/C(C)C)cc1` , what growth inhibition is on record?
14.2% (inactive)

For the molecule C=CCCCCCCCCC1OCC(CC)C(CCC)O1 (centres undefined) , what growth inhibition is on record?
5.65% (inactive)

For the molecule COc1ccc(C2C(C#N)=C(N)NC(=O)C2C(N)=O)cc1 (centres undefined) , what growth inhibition is on record?
-12.6% (inactive)

For the molecule `C/C(CC(=O)N(C(C)C)C(C)C)=N\NC(=O)c1ccncc1` , what growth inhibition is on record?
-3.45% (inactive)
